# TESTED SYSTEM: T1, 4H3165-AA
# T1 chain: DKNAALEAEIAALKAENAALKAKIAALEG
# EXPERIMENT NOTES: two-hybrid library CCmax;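 also: natural log of median RNA to DNA barcode read ratio; higher means stronger binding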
# MEASUREMENT CONTEXT: mean of both orientations
MEASURE NAME: interaction score
API doc: respond with a numeric literal and nothing else, no unit.

Examples with their reported interaction score follow.
{"columns": ["BINDER", "interaction score"],
 "data": [
  ["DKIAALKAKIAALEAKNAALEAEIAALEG [4H2865-AA]", -1.47],
  ["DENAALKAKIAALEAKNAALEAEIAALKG [4H1842-AA]", -1.43]
]}

Next binder, interaction score to be filled in.
binder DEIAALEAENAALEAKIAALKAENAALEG [4H171-AA] , interaction score observed: -1.21
